All values here come from patent US20240317868A1.

Molecular target: T1, human IL1RAP (human, UniProt Q9NPH3 21-367, limits assumed, biotinylated in the ELISA screens (site not stated))
T1 construct: also called huIL1RAP; IL1RAP antigen
T1 sequence (looked up): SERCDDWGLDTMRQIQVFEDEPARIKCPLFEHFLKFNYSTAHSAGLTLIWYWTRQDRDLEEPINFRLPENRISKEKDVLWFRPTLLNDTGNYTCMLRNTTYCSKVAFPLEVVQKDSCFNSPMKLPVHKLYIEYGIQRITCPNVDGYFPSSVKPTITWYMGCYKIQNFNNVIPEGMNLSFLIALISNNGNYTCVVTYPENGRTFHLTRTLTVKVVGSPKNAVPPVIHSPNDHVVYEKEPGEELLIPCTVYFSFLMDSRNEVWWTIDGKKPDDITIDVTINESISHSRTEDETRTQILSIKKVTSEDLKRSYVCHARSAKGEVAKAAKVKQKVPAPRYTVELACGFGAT
Assay: ELISA of point mutant IgG (light chain mutant with the parental chimeric heavy chain, CHO-E expression), one bar each, concentration not given
metric: binding result

- VK-S95P (antibody, V domains shown, germlining point mutant, paired with the parental chimeric heavy chain; also called GO11 chimeric IgG, light chain point mutant S95P; copies: 2 + 2) VH: QVHLQQSGPELVRPGTSVKISCEASGYIFLTYWMNWVKQRPGQGLEWIGQIFPASDSTYYNEMFKDKARFTVDKSSSTAYMQFSSLTSEDTAVYFCARSGPYSYYAGGYALDYWGQGTSVTVSS VL: DIQMTQSPASLSASVGETVTITCRTSENINSYLAWYQQKQGKSPQLLVHYAKTLAEGVPSRFSGSGSGTQFSLKINSLKPEDFGSYYCQHHYGTPLTFGAGTKLELKR: binds
- GO11 chimeric IgG, light chain point mutant VK-T25A (antibody, V domains shown, Light chain mutant paired with the parental chimeric heavy chain; IgG backbone, expressed in CHO-E) VH: QVHLQQSGPELVRPGTSVKISCEASGYIFLTYWMNWVKQRPGQGLEWIGQIFPASDSTYYNEMFKDKARFTVDKSSSTAYMQFSSLTSEDTAVYFCARSGPYSYYAGGYALDYWGQGTSVTVSS VL: DIQMTQSPASLSASVGETVTITCRASENINSYLAWYQQKQGKSPQLLVHYAKTLAEGVPSRFSGSGSGTQFSLKINSLKPEDFGSYYCQHHYGTSLTFGAGTKLELK: binds
- GO11 chimeric IgG, light chain point mutant VK-N30S (antibody, V domains shown, Light chain mutant paired with the parental chimeric heavy chain; IgG backbone, expressed in CHO-E) VH: QVHLQQSGPELVRPGTSVKISCEASGYIFLTYWMNWVKQRPGQGLEWIGQIFPASDSTYYNEMFKDKARFTVDKSSSTAYMQFSSLTSEDTAVYFCARSGPYSYYAGGYALDYWGQGTSVTVSS VL: DIQMTQSPASLSASVGETVTITCRTSENISSYLAWYQQKQGKSPQLLVHYAKTLAEGVPSRFSGSGSGTQFSLKINSLKPEDFGSYYCQHHYGTSLTFGAGTKLELK: binds
